Attribution: paper PMC6268061

Exercise: state measured IC50 for each of the compounds provided.
test system: Absidia corymbifera 272; test: In vitro antifungal susceptibility, broth microdilution; type: cell-based; settings: Lichtheimia corymbifera, 272; 24 h and 48 h, only one value presented (inactive); read-out: MIC (IC50) AC

INPUT: Give its IC50 value. Item: CNC(=S)NN=Cc1ccc2cccc(O)c2n1 [Compound 4e]
OUTPUT: > 125 µM

INPUT: Give its IC50 value. Item: CNC(=S)N/N=C/c1cccc(Cl)c1Cl [Compound 3b]
OUTPUT: > 500 µM

INPUT: Give its IC50 value. Item: CN(C)C(=S)N/N=C/c1cccc(Cl)c1Cl [Compound 3c]
OUTPUT: > 125 µM

INPUT: Give its IC50 value. Item: CCNC(=S)N/N=C/c1ccc(Br)cc1 [Compound 3n]
OUTPUT: > 500 µM

INPUT: Give its IC50 value. Item: S=C(N/N=C/c1ccc(Cl)c(Cl)c1)Nc1ccccc1 [Compound 3j]
OUTPUT: > 125 µM

INPUT: Give its IC50 value. Item: CNC(=S)N/N=C/c1ccc(Cl)c(Cl)c1 [Compound 3g]
OUTPUT: > 125 µM

###

assay: Lipophilicity determination using RP-HPLC (capacity factor, log k); format: physicochemical; details: C18, MeOH 55%/H2O 45%
measurement.kind: log k
# print the numeric value only

INPUT: Give its log k value. Item: "S=C(NN=Cc1ccc2ccccc2n1)Nc1ccccc1"
OUTPUT: 0.7553

INPUT: Give its log k value. Item: "CN(C)C(=S)NN/C=C/c1ccc2ccccc2n1"
OUTPUT: 0.6184

INPUT: Give its log k value. Item: "CNC(=S)N/N=C/c1ccc(Br)cc1"
OUTPUT: 0.6993

INPUT: Give its log k value. Item: "CCNC(=S)N/N=C/c1ccc(Br)cc1"
OUTPUT: 0.7568

INPUT: Give its log k value. Item: "S=C(N/N=C/c1ccc(Cl)c(Cl)c1)Nc1ccccc1"
OUTPUT: 0.9774

INPUT: Give its log k value. Item: "CNC(=S)N/N=C/c1ccc(Cl)c(Cl)c1"
OUTPUT: 0.7563

INPUT: Give its log k value. Item: "S=C(N/N=C/c1cccc(Cl)c1Cl)Nc1ccccc1"
OUTPUT: 0.9230

INPUT: Give its log k value. Item: "CN(C)C(=S)N/N=C/c1ccc(Br)cc1"
OUTPUT: 0.6784

INPUT: Give its log k value. Item: "CCNC(=S)NN=Cc1c(O)ccc2cccnc12"
OUTPUT: 0.6539

INPUT: Give its log k value. Item: "S=C(N/N=C/c1ccc(Br)cc1)Nc1ccccc1"
OUTPUT: 0.8772

INPUT: Give its log k value. Item: "NC(=S)N/N=C/c1ccc(Br)cc1"
OUTPUT: 0.6580

INPUT: Give its log k value. Item: "NC(=S)N/N=C/c1cccc(Cl)c1Cl"
OUTPUT: 0.6892

INPUT: Give its log k value. Item: "CNC(=S)NN=Cc1ccc2cccc(O)c2n1"
OUTPUT: 0.6236

INPUT: Give its log k value. Item: "CNC(=S)NN=Cc1ccc2ccccc2n1"
OUTPUT: 0.6329

INPUT: Give its log k value. Item: "CN(C)C(=S)N/N=C/c1ccc(Cl)c(Cl)c1"
OUTPUT: 0.7555

###

Exercise: state measured MIC for each of the compounds provided.
Tested on: Trichosporon beigelii 1188
Experiment: In vitro antifungal susceptibility, broth microdilution
Assay type: cell-based
Conditions: Trichosporon beigelii, 1188; 24 h and 48 h, only one value presented (inactive); read-out: MIC (IC80) TB
Description: The broth microdilution test was used for the assessment of the in vitro antifungal activity of the synthesized compounds against Candida albicans ATCC 44859 (CA), Candida tropicalis 156 (CT), Candida krusei ATCC 6258 (CK), Candida glabrata 20/I (CG), Trichosporon beigelii 1188 (TB), Aspergillus fumigatus 231 (AF), Absidia corymbifera 272 (AC), and Trichophyton mentagrophytes 445 (TM). […] The values of MICs were determined after 24 and 48 h of static incubation at 35 °C. […]

INPUT: Give its MIC value. Item: "CN(C)C(=S)N/N=C/c1cccc(Cl)c1Cl"
OUTPUT: > 125 µM

INPUT: Give its MIC value. Item: "CNC(=S)N/N=C/c1ccc(Cl)c(Cl)c1"
OUTPUT: > 125 µM

INPUT: Give its MIC value. Item: "S=C(N/N=C/c1ccc(Cl)c(Cl)c1)Nc1ccccc1"
OUTPUT: > 125 µM

INPUT: Give its MIC value. Item: "CNC(=S)N/N=C/c1ccc(Br)cc1"
OUTPUT: > 500 µM

INPUT: Give its MIC value. Item: "CNC(=S)NN=Cc1ccc2cccc(O)c2n1"
OUTPUT: > 125 µM

INPUT: Give its MIC value. Item: "NC(=S)N/N=C/c1ccc(Cl)c(Cl)c1"
OUTPUT: > 500 µM

INPUT: Give its MIC value. Item: "CCNC(=S)N/N=C/c1cccc(Cl)c1Cl"
OUTPUT: > 500 µM

INPUT: Give its MIC value. Item: "S=C(N/N=C/c1ccc(Br)cc1)Nc1ccccc1"
OUTPUT: > 500 µM

INPUT: Give its MIC value. Item: "CCNC(=S)N/N=C/c1ccc(Br)cc1"
OUTPUT: > 500 µM

INPUT: Give its MIC value. Item: "CNC(=S)N/N=C/c1cccc(Cl)c1Cl"
OUTPUT: > 500 µM

INPUT: Give its MIC value. Item: "CCNC(=S)N/N=C/c1ccc(Cl)c(Cl)c1"
OUTPUT: > 500 µM

INPUT: Give its MIC value. Item: "NC(=S)N/N=C/c1cccc(Cl)c1Cl"
OUTPUT: > 125 µM

INPUT: Give its MIC value. Item: "S=C(N/N=C/c1cccc(Cl)c1Cl)Nc1ccccc1"
OUTPUT: > 125 µM

###

test system: Absidia corymbifera 272; experiment: In vitro antifungal susceptibility, broth microdilution; format: cell-based; conditions: Lichtheimia corymbifera, 272, 48 h; read-out: MIC (IC50) AC
measurement.kind: IC50

INPUT: Param readout= IC50; system= Absidia corymbifera 272; entry= OC(Cn1cncn1)(Cn1cncn1)c1ccc(F)cc1F [FLU, Fluconazole, reference compound] ; returns value.
OUTPUT: > 125 µM

INPUT: Param readout= IC50; system= Absidia corymbifera 272; entry= Oc1cccc2ccc(C=NNC(=S)Nc3ccccc3)nc12 [Compound 4h] ; returns value.
OUTPUT: > 125 µM

INPUT: Param readout= IC50; system= Absidia corymbifera 272; entry= CN(C)C(=S)NN=Cc1c(O)ccc2cccnc12 [Compound 4j] ; returns value.
OUTPUT: > 250 µM

INPUT: Param readout= IC50; system= Absidia corymbifera 272; entry= CCNC(=S)NN=Cc1c(O)ccc2cccnc12 [Compound 4k] ; returns value.
OUTPUT: > 500 µM

INPUT: Param readout= IC50; system= Absidia corymbifera 272; entry= CN(C)C(=S)N/N=C/c1ccc(Br)cc1 [Compound 3m] ; returns value.
OUTPUT: > 500 µM

INPUT: Param readout= IC50; system= Absidia corymbifera 272; entry= CN(C)C(=S)N/N=C/c1ccc(Cl)c(Cl)c1 [Compound 3h] ; returns value.
OUTPUT: > 500 µM

INPUT: Param readout= IC50; system= Absidia corymbifera 272; entry= CNC(=S)NN=Cc1c(O)ccc2cccnc12 [Compound 4i] ; returns value.
OUTPUT: > 500 µM

INPUT: Param readout= IC50; system= Absidia corymbifera 272; entry= CN(C)C(=S)NN/C=C/c1ccc2ccccc2n1 [Compound 4b] ; returns value.
OUTPUT: 3.9 µM

INPUT: Param readout= IC50; system= Absidia corymbifera 272; entry= Oc1ccc2cccnc2c1C=NNC(=S)Nc1ccccc1 [Compound 4l] ; returns value.
OUTPUT: 62.5 µM

INPUT: Param readout= IC50; system= Absidia corymbifera 272; entry= NC(=S)N/N=C/c1ccc(Br)cc1 [Compound 3k] ; returns value.
OUTPUT: > 500 µM

###

system: Trichosporon beigelii 1188; experiment: In vitro antifungal susceptibility, broth microdilution; assay type: cell-based; details: Trichosporon beigelii, 1188, 24 h; read-out: MIC (IC80) TB
Flag rule - MIC less than 100 µM flags Condition met; the remaining entries get Condition not met.

INPUT: Below 100 µM on MIC? Entry "CN(C)C(=S)NN/C=C/c1ccc2ccccc2n1"
OUTPUT: Condition met

INPUT: Below 100 µM on MIC? Entry "Oc1cccc2ccc(C=NNC(=S)Nc3ccccc3)nc12"
OUTPUT: Condition not met

INPUT: Below 100 µM on MIC? Entry "CN(C)C(=S)NN=Cc1c(O)ccc2cccnc12"
OUTPUT: Condition not met

INPUT: Below 100 µM on MIC? Entry "NC(=S)N/N=C/c1ccc(Br)cc1"
OUTPUT: Condition not met

INPUT: Below 100 µM on MIC? Entry "CNC(=S)NN=Cc1c(O)ccc2cccnc12"
OUTPUT: Condition not met

INPUT: Below 100 µM on MIC? Entry OC(Cn1cncn1)(Cn1cncn1)c1ccc(F)cc1F [FLU, Fluconazole, reference compound]
OUTPUT: Condition met

INPUT: Below 100 µM on MIC? Entry "CCNC(=S)NN=Cc1c(O)ccc2cccnc12"
OUTPUT: Condition not met

INPUT: Below 100 µM on MIC? Entry "Oc1ccc2cccnc2c1C=NNC(=S)Nc1ccccc1"
OUTPUT: Condition met

INPUT: Below 100 µM on MIC? Entry "CN(C)C(=S)N/N=C/c1ccc(Cl)c(Cl)c1"
OUTPUT: Condition not met

INPUT: Below 100 µM on MIC? Entry "CN(C)C(=S)N/N=C/c1ccc(Br)cc1"
OUTPUT: Condition met
